Parameter protein stability index: see the listing below.
B1: RSPH3 (parent)
chain: LELQRQREARKRALARKQAQEQLR

Variants of: B1
Assay: protein stability index of a GFP-peptide fusion (GPS, HEK-293T) (PSI 1-6); higher = more stable;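 further: lentivirally expressed fusions sorted by FACS into six bins by GFP to DsRed ratio, PSI derived from sequencing read proportions per bin multiplied by bin number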
Settings: c terminus: a fixed tail appended
// no unit string in output, number only

input: Tell me the measured protein stability index of E2S , please.
output: 3.56

input: Tell me the measured protein stability index of L1Q , please.
output: 3.82

input: Tell me the measured protein stability index of Q6V , please.
output: 3.37

input: Tell me the measured protein stability index of R16P , please.
output: 4.32

input: Tell me the measured protein stability index of E8H , please.
output: 3.83

input: Tell me the measured protein stability index of R7G , please.
output: 4.52
